Tested on: 429239-143-T-J1-PDC complex spheroid viability
Experiment: Anticancer human tumor 429239-143-T-J1-PDC patient-derived small cell lung carcinoma cell line growth inhibition [POLQ]
Conditions: second compound 1 µM; first compound 0.000316 µM; stronger effect = lower value
Description: Multicellular complex tumor spheroid response to Polymerase (POL) inhibitors (novobiocin, ART-558, RP6685) in combination with a variety of drugs and investigational agents in selected tumor cell lines The POL inhibitors (novobiocin, ART-558, and RP6685) were evaluated both individually and in combination with standard of care and investigational anticancer small molecules within a complex spheroid model of solid tumors. . […]

# molecule, unit_info, viability, T/C
data = [
    ("Cn1ncnc1[C@H]1c2n[nH]c(=O)c3cc(F)cc(c23)N[C@@H]1c1ccc(F)cc1 + Nc1ccc(C#CCN(C(=O)Cc2ncc(C(F)(F)F)cc2C(F)(F)F)c2ccc(F)cc2)nn1", "%", 111),
    ("CC[C@@]1(O)C(=O)OCc2c1cc1n(c2=O)Cc2cc3c(CN(C)C)c(O)ccc3nc2-1 + Nc1ccc(C#CCN(C(=O)Cc2ncc(C(F)(F)F)cc2C(F)(F)F)c2ccc(F)cc2)nn1", "%", 107),
    ("CC[C@@]1(O)C(=O)OCc2c1cc1n(c2=O)Cc2cc3c(CN(C)C)c(O)ccc3nc2-1 + COC1C(OC(N)=O)C(O)C(Oc2ccc3c(O)c(NC(=O)c4ccc(O)c(CC=C(C)C)c4)c(=O)oc3c2C)OC1(C)C", "%", 93.6),
    ("CC[C@@]1(O)C(=O)OCc2c1cc1n(c2=O)Cc2cc3c(CN(C)C)c(O)ccc3nc2-1 + Cc1cccc(N(C)C(=O)C2C(O)CCN2c2nc(C)cc(C(F)(F)F)c2C#N)c1", "%", 99.1),
    ("Cn1ncnc1[C@H]1c2n[nH]c(=O)c3cc(F)cc(c23)N[C@@H]1c1ccc(F)cc1 + Cc1cccc(N(C)C(=O)C2C(O)CCN2c2nc(C)cc(C(F)(F)F)c2C#N)c1", "%", 97.1),
    ("Cn1ncnc1[C@H]1c2n[nH]c(=O)c3cc(F)cc(c23)N[C@@H]1c1ccc(F)cc1 + COC1C(OC(N)=O)C(O)C(Oc2ccc3c(O)c(NC(=O)c4ccc(O)c(CC=C(C)C)c4)c(=O)oc3c2C)OC1(C)C", "%", 98.4),
]

* * *

system: 429239-143-T-J1-PDC complex spheroid viability; test: Anticancer human tumor 429239-143-T-J1-PDC cell line growth inhibition [POLQ]; conditions: curve of first compound; second compound 0.0316 µM;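 also: luminescence signal used as surrogate measure of viable cells; spheroids exposed to compounds for seven days before readout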

# compound, study_system, qualifying_sign, IC50, µM
records = [
    ("CCc1cc2c(N3CCc4c(cc(Cn5ccnc5)cc4-c4cn(C)nc4C(F)(F)F)C3=O)cc(C)nc2c(OC)n1 + Nc1ccc(C#CCN(C(=O)Cc2ncc(C(F)(F)F)cc2C(F)(F)F)c2ccc(F)cc2)nn1", "429239-143-T-J1-PDC complex spheroid viability", "=", 7.23),
    ("CCc1c2c(nc3ccc(O)cc13)-c1cc3c(c(=O)n1C2)COC(=O)[C@]3(O)CC + Cc1cccc(N(C)C(=O)C2C(O)CCN2c2nc(C)cc(C(F)(F)F)c2C#N)c1", "429239-143-T-J1-PDC complex spheroid viability", "<", 0.00316),
    ("CCCS(=O)(=O)Nc1ccc(F)c(C(=O)c2c[nH]c3ncc(-c4ccc(Cl)cc4)cc23)c1F + Cc1cccc(N(C)C(=O)C2C(O)CCN2c2nc(C)cc(C(F)(F)F)c2C#N)c1", "429239-143-T-J1-PDC complex spheroid viability", ">", 10),
    ("O=C(Nc1ccc(O)c(NS(=O)(=O)c2ccc(F)cc2)c1)c1ccc(-c2ccccc2)cc1 + Cc1cccc(N(C)C(=O)C2C(O)CCN2c2nc(C)cc(C(F)(F)F)c2C#N)c1", "429239-143-T-J1-PDC complex spheroid viability", ">", 10),
    ("CC1COCCN1c1cc(C2(O)CC3CCC(C2)O3)c2cnn(-c3ccn[nH]3)c2n1 (stereo not given) + Cc1cccc(N(C)C(=O)C2C(O)CCN2c2nc(C)cc(C(F)(F)F)c2C#N)c1", "429239-143-T-J1-PDC complex spheroid viability", "=", 0.0672),
]
